Overview of reported IC50 across a group of compounds:
- Tested on: HCT-116
- MEASUREMENT_DESCRIPTION: Antiproliferative activity against human HCT-116 cells assessed as cell growth inhibition and measured after 72 hrs by CCK8 assay
- EXPERIMENTAL_SETUP: HCT-116, 72 h
Your answer should be a plain number; it is taken to be in µM.

[
  {
    "COMPOUND": "Cc1ccc(-n2nc3c(=O)n(CCCC(=O)NCCCCNC(=O)CC45CC6CC(CC(C6)C4)C5)nc(C)c3c2C)cc1",
    "IC50 / µM": 50.7
  }
]

Note: attention shifts to another entry.
### Prompt Which measured IC50 value corresponds to Cc1ccc(-n2nc3c(=O)n(CCCC(=O)NCC(C)c4ccccc4)nc(C)c3c2C)cc1 (centres undefined) ?
### Response 82.4

These data points were gathered from ChEMBL document CHEMBL5038671.
